B1: ANKRD40 (parent)
chain: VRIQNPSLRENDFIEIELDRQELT

variants of: B1; assay: protein stability index of a GFP-peptide fusion (GPS, HEK-293T) (PSI 1-6); higher = more stable; details: c terminus: a fixed tail appended;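 further: lentivirally expressed fusions sorted by FACS into six bins by GFP to DsRed ratio, PSI derived from sequencing read proportions per bin multiplied by bin number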
recordedMetric: protein stability index
No unit in the answer, please; the number alone is enough.

Task item: Requested read-out: protein stability index. Entry: `V1L`
Reply: 2.71

Task item: What would you report for `F13W` ?
Reply: 2.44

Task item: What would you report for `I14S` ?
Reply: 4.42

Task item: What would you report for `E10P` ?
Reply: 2.5

Task item: What would you report for `L23C` ?
Reply: 2.8

Task item: What would you report for `E10C` ?
Reply: 1.73

Task item: What would you report for `S7K` ?
Reply: 2.81

Task item: What would you report for `I14M` ?
Reply: 3.34
